B1: FAM164A (parent)
chain: YDPDYIQCPYCQRRFNENAADRHI

variants of: B1; assay: protein stability index of a GFP-peptide fusion (GPS, HEK-293T) (PSI 1-6); higher = more stable; conditions: c terminus: a fixed tail appended;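 note: lentivirally expressed fusions sorted by FACS into six bins by GFP to DsRed ratio, PSI derived from sequencing read proportions per bin multiplied by bin number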

| mutationAnnotation | protein stability index |
| --- | --- |
| I24R | 3.9 |
| H23L | 3.9 |
| Y1R | 3.98 |
| C11S | 4.03 |
| Y10S | 3.9 |
| Y5F | 4.07 |
| H23K | 4.11 |
| Q7K | 3.94 |
| D2G | 3.96 |
| D4K | 4.11 |
| H23R | 3.96 |
| I24Y | 4.01 |
| Q12E | 4.04 |
| A19K | 4 |
